Sourced from patent US20230372526A1

Experiment: Hydrolysis of Pertuzumab conjugated samples obtained using different small molecule compounds, hydrolysis percentage by Native MS
Assay type: physicochemical
Conditions: Pertuzumab conjugate; 50 mM PB pH 7.8, 35° C., 18 h; Native MS
Here the recorded 18 h hydrolysis percentage is given for each entry.
# output: bare number, implied unit %

compound	obs-value
CCC(C)[C@@H]([C@@H](CC(=O)N1CCC[C@H]1[C@H](OC)[C@@H](C)C(=O)N[C@H](C)[C@@H](O)c1ccccc1)OC)N(C)C(=O)[C@@H](NC(=O)[C@H](C(C)C)N(C)C(=O)OCc1ccc(NC(=O)[C@H](CCCNC(N)=O)NC(=O)[C@@H](NC(=O)COCCOCCOCCOc2ccc(N3C(=O)C(Sc4ccc(C(=O)NC)cc4)=C(Sc4ccc(C(=O)NC)cc4)C3=O)cc2C(F)(F)F)C(C)C)cc1)C(C)C (some centres unmarked) [B-6]	47.60

Q) Supply recorded 18 h hydrolysis percentage for CCC(C)[C@@H]([C@@H](CC(=O)N1CCC[C@H]1[C@H](OC)[C@@H](C)C(=O)N[C@H](C)[C@@H](O)c1ccccc1)OC)N(C)C(=O)[C@@H](NC(=O)[C@H](C(C)C)N(C)C(=O)OCc1ccc(NC(=O)[C@H](CCCNC(N)=O)NC(=O)[C@@H](NC(=O)COCCOCCOCCOc2c(OC)cc(N3C(=O)C(Sc4ccccc4)=C(Sc4ccccc4)C3=O)cc2OC)C(C)C)cc1)C(C)C (some centres unmarked) [A-2] here.
A) 48.43

* * *

Experiment: Hydrolysis of Pertuzumab conjugated samples obtained using different small molecule compounds, hydrolysis percentage by Native MS
Type: physicochemical
Conditions: Pertuzumab conjugate; 50 mM sodium dihydrogen phosphate-disodium hydrogen phosphate buffer, pH 7.8, 35° C., 3 h; Native MS
*1 amine or outer side, *2 acyl side, *3 side chain or, on linkers, in order; H or OH if unused. Where a SMILES comes first, the peptide text is derived from it. [ ]: non-standard residue; d: D form. The star is where a group is joined. ξ: configuration not given here. Dil(5ξ) = CCC(C)[C@@H]([C@@H](CC(=O)[*:2])OC)N(C)[*:1]; Dolaproine = CO[C@@H]([C@@H]1CCCN1)[C@@H](C)C(=O)O; Hexanoyl(6-maleimido) = O=C1C=CC(=O)N1CCCCCC(=O)*; PABC = O=C(OCc1ccc(N[*:1])cc1)[*:2]; X1 = C[C@@H](N*)[C@@H](O)c1ccccc1; Cit = NC(=O)NCCC[C@H](N)C(=O)O; NMeV = CN[C@H](C(=O)O)C(C)C
observable: 3 h hydrolysis percentage
Record the result as number plus unit.

compound	3 h hydrolysis percentage
CCC(C)[C@@H]([C@@H](CC(=O)N1CCC[C@H]1[C@H](OC)[C@@H](C)C(=O)N[C@H](C)[C@@H](O)c1ccccc1)OC)N(C)C(=O)[C@@H](NC(=O)[C@H](C(C)C)N(C)C(=O)OCc1ccc(NC(=O)[C@H](CCCNC(N)=O)NC(=O)[C@@H](NC(=O)CCCCCN2C(=O)C=CC2=O)C(C)C)cc1)C(C)C (stereo partly drawn) [D-1] ({Hexanoyl(6-maleimido)}-V[Cit][PABC][NMeV]V[Dil(5ξ)][Dolaproine]-X1)	4.74%
CCC(C)[C@@H]([C@@H](CC(=O)N1CCC[C@H]1[C@H](OC)[C@@H](C)C(=O)N[C@H](C)[C@@H](O)c1ccccc1)OC)N(C)C(=O)[C@@H](NC(=O)[C@H](C(C)C)N(C)C(=O)OCc1ccc(NC(=O)[C@H](CCCNC(N)=O)NC(=O)[C@@H](NC(=O)COCCOCCOCCOc2ccc(N3C(=O)C(Sc4ccccc4)=C(Sc4ccccc4)C3=O)c(C(F)(F)F)c2)C(C)C)cc1)C(C)C (some centres unmarked)	25.99%
CCC(C)[C@@H]([C@@H](CC(=O)N1CCC[C@H]1[C@H](OC)[C@@H](C)C(=O)N[C@H](C)[C@@H](O)c1ccccc1)OC)N(C)C(=O)[C@@H](NC(=O)[C@H](C(C)C)N(C)C(=O)OCc1ccc(NC(=O)[C@H](CCCNC(N)=O)NC(=O)[C@@H](NC(=O)COCCOCCOCCOc2ccc(N3C(=O)C(Sc4ccc(C(=O)N5CCOCC5)cc4)=C(Sc4ccc(C(=O)N5CCOCC5)cc4)C3=O)cc2)C(C)C)cc1)C(C)C (some centres unmarked)	79.08%
CCC(C)[C@@H]([C@@H](CC(=O)N1CCC[C@H]1[C@H](OC)[C@@H](C)C(=O)N[C@H](C)[C@@H](O)c1ccccc1)OC)N(C)C(=O)[C@@H](NC(=O)[C@H](C(C)C)N(C)C(=O)OCc1ccc(NC(=O)[C@H](CCCNC(N)=O)NC(=O)[C@@H](NC(=O)COCCOCCOCCOc2c(OC)cc(N3C(=O)C(Sc4ccccc4)=C(Sc4ccccc4)C3=O)cc2OC)C(C)C)cc1)C(C)C (some centres unmarked)	17.85%

Q) Supply recorded 3 h hydrolysis percentage for CCC(C)[C@@H]([C@@H](CC(=O)N1CCC[C@H]1[C@H](OC)[C@@H](C)C(=O)N[C@H](C)[C@@H](O)c1ccccc1)OC)N(C)C(=O)[C@@H](NC(=O)[C@H](C(C)C)N(C)C(=O)OCc1ccc(NC(=O)[C@H](CCCNC(N)=O)NC(=O)[C@@H](NC(=O)COCCOCCOCCOc2ccc(N3C(=O)C(Sc4ccc(C(=O)NC)cc4)=C(Sc4ccc(C(=O)NC)cc4)C3=O)cc2C(F)(F)F)C(C)C)cc1)C(C)C (some centres unmarked) here.
A) 22.86%

* * *

Assay: Hydrolysis of Pertuzumab conjugated samples obtained using different small molecule compounds, hydrolysis percentage by Native MS
Type: physicochemical
Conditions: hydrolysis system A: 50 mM sodium dihydrogen phosphate-disodium hydrogen phosphate buffer, pH 7.8; 3 h
Protocol: The analysis conditions were as follows: • Capillary activation: the capillary was rinsed with 0.1 mol/L sodium hydroxide for 10 min, 0.1 mol/L hydrochloric acid for 5 min and water for injection for 2 min respectively at 20 psi; and then rinsed with SDS-MW-Gel Buffer for 10 min at 70 psi; afterwards, pre-separation was performed for 10 min at 20 psi, at a column temperature of 25° C. and a voltage of −15 kv. […]
Here the recorded 3 h hydrolysis percentage is given for each entry.
# output: bare number, implied unit %

compound	3 h hydrolysis percentage (%)
CCC(C)[C@@H]([C@@H](CC(=O)N1CCC[C@H]1[C@H](OC)[C@@H](C)C(=O)N[C@H](C)[C@@H](O)c1ccccc1)OC)N(C)C(=O)[C@@H](NC(=O)[C@H](C(C)C)N(C)C(=O)OCc1ccc(NC(=O)[C@H](CCCNC(N)=O)NC(=O)[C@@H](NC(=O)COCCOCCOCCOc2ccc(N3C(=O)C(Sc4ccc(C(=O)N5CCOCC5)cc4)=C(Sc4ccc(C(=O)N5CCOCC5)cc4)C3=O)cc2)C(C)C)cc1)C(C)C (stereo partly drawn) [C-1]	99.56

Q) Supply recorded 3 h hydrolysis percentage for CCC(C)[C@@H]([C@@H](CC(=O)N1CCC[C@H]1[C@H](OC)[C@@H](C)C(=O)N[C@H](C)[C@@H](O)c1ccccc1)OC)N(C)C(=O)[C@@H](NC(=O)[C@H](C(C)C)N(C)C(=O)OCc1ccc(NC(=O)[C@H](CCCNC(N)=O)NC(=O)[C@@H](NC(=O)COCCOCCOCCOc2c(F)cc(N3C(=O)C(Sc4ccc(C(=O)N5CCOCC5)cc4)=C(Sc4ccc(C(=O)N5CCOCC5)cc4)C3=O)cc2F)C(C)C)cc1)C(C)C (stereo partly drawn) [C-3] here.
A) 99.56

Q) Supply recorded 3 h hydrolysis percentage for CCC(C)[C@@H]([C@@H](CC(=O)N1CCC[C@H]1[C@H](OC)[C@@H](C)C(=O)N[C@H](C)[C@@H](O)c1ccccc1)OC)N(C)C(=O)[C@@H](NC(=O)[C@H](C(C)C)N(C)C(=O)OCc1ccc(NC(=O)[C@H](CCCNC(N)=O)NC(=O)[C@@H](NC(=O)COCCOCCOCCOc2c(F)cc(N3C(=O)C(Sc4ccccc4)=C(Sc4ccccc4)C3=O)cc2F)C(C)C)cc1)C(C)C (stereo partly drawn) [A-3] here.
A) 99.32

* * *

Experiment: Hydrolysis of Pertuzumab conjugated samples obtained using different small molecule compounds, hydrolysis percentage by Native MS
Format: physicochemical
Conditions: hydrolysis system B: 50 mM sodium phosphate buffer+3% arginine, pH 7.8; 3 h
observable: 3 h hydrolysis percentage (%)
# output: bare number, implied unit %

// worked examples, 3 h hydrolysis percentage included
molecule	3 h hydrolysis percentage (%)
CCC(C)[C@@H]([C@@H](CC(=O)N1CCC[C@H]1[C@H](OC)[C@@H](C)C(=O)N[C@H](C)[C@@H](O)c1ccccc1)OC)N(C)C(=O)[C@@H](NC(=O)[C@H](C(C)C)N(C)C(=O)OCc1ccc(NC(=O)[C@H](CCCNC(N)=O)NC(=O)[C@@H](NC(=O)COCCOCCOCCOc2ccc(N3C(=O)C(Sc4ccc(C(=O)NC)cc4)=C(Sc4ccc(C(=O)NC)cc4)C3=O)cc2OC)C(C)C)cc1)C(C)C (stereo partly shown)	51.25
CCC(C)[C@@H]([C@@H](CC(=O)N1CCC[C@H]1[C@H](OC)[C@@H](C)C(=O)N[C@H](C)[C@@H](O)c1ccccc1)OC)N(C)C(=O)[C@@H](NC(=O)[C@H](C(C)C)N(C)C(=O)OCc1ccc(NC(=O)[C@H](CCCNC(N)=O)NC(=O)[C@@H](NC(=O)COCCOCCOCCOc2ccc(N3C(=O)C(Sc4ccccc4)=C(Sc4ccccc4)C3=O)c(C(F)(F)F)c2)C(C)C)cc1)C(C)C (stereo partly shown)	35.23
CCC(C)[C@@H]([C@@H](CC(=O)N1CCC[C@H]1[C@H](OC)[C@@H](C)C(=O)N[C@H](C)[C@@H](O)c1ccccc1)OC)N(C)C(=O)[C@@H](NC(=O)[C@H](C(C)C)N(C)C(=O)OCc1ccc(NC(=O)[C@H](CCCNC(N)=O)NC(=O)[C@@H](NC(=O)COCCOCCOCCOc2c(F)cc(N3C(=O)C(Sc4ccc(C(=O)N5CCOCC5)cc4)=C(Sc4ccc(C(=O)N5CCOCC5)cc4)C3=O)cc2F)C(C)C)cc1)C(C)C (stereo partly shown)	99.41

Could you now look at the following molecule, please?
Q) Supply recorded 3 h hydrolysis percentage for CCC(C)[C@@H]([C@@H](CC(=O)N1CCC[C@H]1[C@H](OC)[C@@H](C)C(=O)N[C@H](C)[C@@H](O)c1ccccc1)OC)N(C)C(=O)[C@@H](NC(=O)[C@H](C(C)C)N(C)C(=O)OCc1ccc(NC(=O)[C@H](CCCNC(N)=O)NC(=O)[C@@H](NC(=O)COCCOCCOCCOc2c(F)cc(N3C(=O)C(Sc4ccccc4)=C(Sc4ccccc4)C3=O)cc2F)C(C)C)cc1)C(C)C (stereo partly shown) here.
A) 99.41
